Biological target: recombinant SARS-CoV-2 RBD with C-terminal AviTag (SARS-CoV-2, UniProt P0DTC2 319-541)
Test: ELISA, competition with coated ACE2-Fc for RBD [Cont. 8]
pIC50: −log10 of the molar value.
Value type: pIC50

Binder	Observed measurement
PP1094 MBP-5HVZ-PAPA-RN-1-H6 (VHH) VHH: QVQLVESGGGLVQPGGSLRLSCAASGYIFEGGPTAWFRQAPGKGREFVAAITTSGETSYAYSVKGRFTISRDNAKNTVYLQMNSLKPEDTAVYYCNATDRDETGYDYWGQGTQVTVSS	8.11
PP922 MBP-R5a-F5-H6 (VHH, Form: Monomer) VHH: QVQLVESGGGLVQPGGSLRLSCAASGYHASILAMHWVRQAPGKEREWVASMTWSDMTQYSDSVKGRFTISRDNAKNTVYLQMNSLKPEDTAVYYCAATYVTRDRPWTHWGQGTQVTVSS	7.01
